# assay overview: Cmax in Sprague-Dawley rat at 10 mg/kg, iv administered as single dose by LC/MS analysis
# Assay type: ADME, organism-based
# Set-up: dose 10 mg/kg, route intravenous
# conditions used: in vivo
value kind: Cmax (ng/mL)
Provide only the numeric value, understood in ng/mL.

Look at this compound and give its reported Cmax. Cl.Cn1ncc(Cl)c1-c1ccc(C(=O)N[C@@H]2CNCC[C@H]2c2cccc(F)c2)cc1
1000

----------
# Tested on: RAW264.7
# assay overview: Modulation of M2 polarization in mouse RAW264.7 cells assessed as change in Arg1 mRNA expression at 300 nM measured after 24 hrs by qRT-PCR analysis relative to control
# Assay type: functional
Threshold-based label: fold change (FC) under 2 gives criterion met, fold change (FC) not under 2 gives criterion not met.

>>> group_label("Cl.Cn1ncc(Cl)c1-c1ccc(C(=O)N[C@@H]2CNCC[C@H]2c2ccc(F)c(F)c2)cc1Cl")
"criterion met"

Lab log: compare recorded fold change (FC) with 2; is it strictly lower for Cn1nccc1-c1ccc(C(=O)Nc2ccc(F)cc2)c(F)c1 ?
criterion met

Lab log: compare recorded fold change (FC) with 2; is it strictly lower for Cl.Cn1ncc(Cl)c1-c1ccc(C(=O)N[C@@H]2CNCC[C@H]2c2ccc(F)c(F)c2)cn1 ?
criterion met

Lab log: compare recorded fold change (FC) with 2; is it strictly lower for Cc1cc(-c2ccnn2C)cnc1C(=O)N[C@@H]1CNCC[C@H]1c1ccc(Cl)c(C(F)(F)F)c1.Cl ?
criterion met

Lab log: compare recorded fold change (FC) with 2; is it strictly lower for Cn1nccc1C(=O)N1C[C@@H](c2cc(F)cc(F)c2)[C@@H]2[C@H]1C1CCN2CC1 ?
criterion not met
